target: 5-hydroxytryptamine receptor 1A (Homo sapiens, UniProt P08908); assay: Inhibition of human 5HT1A receptor
Sequence (P08908 whole entry): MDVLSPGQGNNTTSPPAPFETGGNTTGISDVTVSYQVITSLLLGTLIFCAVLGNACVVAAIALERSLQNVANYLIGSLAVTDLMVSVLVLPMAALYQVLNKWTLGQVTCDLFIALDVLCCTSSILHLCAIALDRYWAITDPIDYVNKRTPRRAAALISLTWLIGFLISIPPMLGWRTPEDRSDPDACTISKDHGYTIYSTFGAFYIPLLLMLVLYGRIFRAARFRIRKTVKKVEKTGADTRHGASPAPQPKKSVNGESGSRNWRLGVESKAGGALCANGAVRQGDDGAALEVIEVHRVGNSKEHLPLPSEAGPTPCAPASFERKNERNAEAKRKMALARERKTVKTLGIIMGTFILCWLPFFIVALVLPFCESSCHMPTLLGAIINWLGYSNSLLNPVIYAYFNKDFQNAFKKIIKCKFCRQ
pIC50: −log10 of the molar value.
measurement label: pIC50

Solved cases (3 shown):
[[record]]
molecule = "CN1CCOc2ccc(S(=O)(=O)Nc3ccc4c(c3)/C(=N/NC(=N)N)CC4)cc21"
experimental_result = "< 6.00"

[[record]]
molecule = "CN(c1ccc2c(c1)/C(=N/NC(=N)N)CC2)S(=O)(=O)c1c(Cl)nc2sccn12.Cl"
experimental_result = "< 6.00"

[[record]]
molecule = "CC1Cc2ccc(NS(=O)(=O)c3c(Cl)nc4sccn34)cc2/C1=N/NC(=N)N.Cl (racemic)"
experimental_result = "< 6.00"


Attention now turns to another entry.
*Q* Note pIC50 for the molecule shown: "Cl.N=C(N)N/N=C1\CCc2cc(NS(=O)(=O)c3c(Cl)nc4sccn34)ccc21"
*A* < 5.00
